Where do these numbers come from? They come from paper PMC10534582.

assay: Pharmacokinetics of JHG components in pulmonary fibrosis (PF) model rats after intragastric administration of JHGs (plasma, Orbitrap Fusion MS); type: in vivo, Sprague Dawley (SD) rats; conditions: male, Sprague-Dawley, rat, plasma, po, 22.81 g/kg/day; PF model rats, JHGs high dose 22.81 g/kg/d
Hi there, I'd appreciate the recorded AUC(0-t) for every entry that follows.
Give the quantity in ng·h/mL, number only.

Suppose we examine the compound `COc1ccc(-c2cc(=O)c3c(OC)c(OC)c(OC)c(OC)c3o2)cc1OC` ; what AUC(0-t) value has been reported? 15.5

Suppose we examine the compound `COc1ccc(C(C)=O)c(O)c1` ; what AUC(0-t) value has been reported? 35

Suppose we examine the compound CC1=C2CC3C(CC(=O)C4CC(O)CCC43C)C2CCC12OC1CC(C)CNC1C2C (stereo not drawn) ; what AUC(0-t) value has been reported? 29.7
